system: SK-BR-3; assay: normalised response (% of control), CellTiter-Glo; higher = more viable cells (100 = DMSO, 0 = benzethonium chloride kill control); conditions: incubation time: 72 h
measured.property: normalised response (%)

>>> print(df.to_string())
                                    compound  test_system    measured_property  reading_unit  endpoint_value
 0  CC(C)(C)NC(=O)[C@H]1CC[C@H]2[C@@H]3CC[C@H]4NC(=O)C=C[C@]4(C)[C@H]3CC[C@]12C [Finasteride] (1 nM)      SK-BR-3  normalised response             %             103
 1  CNC(=O)c1ccccc1Sc1ccc2c(/C=C/c3ccccn3)n[nH]c2c1 [Axitinib] (1 nM)      SK-BR-3  normalised response             %             109
 2  CC(C)n1cnc2c(NCCc3ccc(O)cc3)nc(-c3csc4ccccc34)nc21 [StemRegenin 1] (1 nM)      SK-BR-3  normalised response             %             108
 3  COc1ccc(S(=O)(=O)Nc2cccnc2Nc2ccc(O)cc2)cc1 [ABT-751] (1 nM)      SK-BR-3  normalised response             %            84.4
 4  CO[C@@]12[C@H](COC(N)=O)C3=C(C(=O)C(C)=C(N)C3=O)N1C[C@@H]1N[C@@H]12 [Mitomycin C] (1 nM)      SK-BR-3  normalised response             %             100
 5  CO[C@@]12[C@H](COC(N)=O)C3=C(C(=O)C(C)=C(N)C3=O)N1C[C@@H]1N[C@@H]12 [Mitomycin C] (10 nM)      SK-BR-3  normalised response             %            94.4
 6  CC(O)(CS(=O)(=O)c1ccc(F)cc1)C(=O)Nc1ccc(C#N)c(C(F)(F)F)c1 (stereo not given) [Bicalutamide] (1 nM)      SK-BR-3  normalised response             %             106
 7  CC(=O)[C@]1(O)Cc2c(O)c3c(c(O)c2[C@@H](O[C@H]2C[C@H](N)[C@H](O)[C@H](C)O2)C1)C(=O)c1ccccc1C3=O [Idarubicin] (100 nM)      SK-BR-3  normalised response             %            83.4
 8  O=C(O)CNC(=O)c1c(O)c2ccccc2n(Cc2ccccc2)c1=O [IOX-2] (5000 nM)      SK-BR-3  normalised response             %            99.7
 9  CN(Cc1cnc2nc(N)nc(N)c2n1)c1ccc(C(=O)N[C@@H](CCC(=O)O)C(=O)O)cc1 [Methotrexate] (50 nM)      SK-BR-3  normalised response             %            74.7
10  Cc1cc(Nc2nc(N[C@@H](C)c3ncc(F)cn3)ncc2Cl)[nH]n1 [AZD1480] (100 nM)      SK-BR-3  normalised response             %            91.8
11  CC(=O)[C@]1(O)Cc2c(O)c3c(c(O)c2[C@@H](O[C@H]2C[C@H](N)[C@H](O)[C@H](C)O2)C1)C(=O)c1ccccc1C3=O [Idarubicin] (0.1 nM)      SK-BR-3  normalised response             %             105
12  C=CCn1c(=O)c2cnc(Nc3ccc(N4CCN(C)CC4)cc3)nc2n1-c1cccc(C(C)(C)O)n1 [MK1775] (1 nM)      SK-BR-3  normalised response             %            78.3
13  CNC(=O)c1ccccc1Sc1ccc2c(/C=C/c3ccccn3)n[nH]c2c1 [Axitinib] (1000 nM)      SK-BR-3  normalised response             %            90.5
14  CC(C)n1cnc2c(NCCc3ccc(O)cc3)nc(-c3csc4ccccc34)nc21 [StemRegenin 1] (1000 nM)      SK-BR-3  normalised response             %            96.5
